Data provenance is patent US20250027068.

target: pooled human IgG (human IgG1,2,3 and 4)
MEASUREMENT KIND: Enzyme Activity Endpoint Assay: scIgG (ng/µL)
Write the value in ng/µL as a bare number.

PROTEIN	RECORDED NUMBER
PRT-448 (protein) MVTSVWTKGVTPPTDFIKGEDVFHAPYKAGQGWYDITKTFNGKDDLLCGAATAGNMLHWWFDQNKDQIEAYLKEHPEKQKINFNGEQMFDVKEAIDTKDDQTNSKLFEYFKEKAFPYLSTKHLGVFPDHVLDMFINGYRLSLTNHGPTPVKEGSKDPRGGIFDAVFTRGDQSKLLTSRHDLKNKTLKEISDLIKQELTEGKALALSHTYANVRINHVINLWGADFDSNGNLEAIYVTDSDSNASIGMKKYFVGVNSAGKVAISAKEIEDDNIGAQVLGLFTLSTGQDIWNQTNLEHHHHHH	0

For the protein PRT-107 (protein) MRNATEAYAKEVPHQITSVWTKGVTPLTPEQFRYNNEDVIHAPYLANQGWYDITKAFDGKDNLLCGAATAGNMLHWWFDQNKTEIEAYLSKHPEKQKIIFNNQELFDLKAAIDTKDSQTNSQLFNYFRDKAFPNLSARQLGVMPDLVLDMFINGYYLNVFKTQSTDVNRPYQTKDKRGGIFDAVFTRGDQTTLLTARHDLKNKGLNDISTIIKQELTEGKALALSHTYANVSISHVINLWGADFNAEGNLEAIYVTDSDANASIGMKKYFVGVNAAGHVAISAKKIEGENIGAQVLGLFTLSSGKDIWQKLS , give its measured Enzyme Activity Endpoint Assay: scIgG value.
117

For the protein PRT-291 (protein) MVTSVWTKGVTPPADFTQGEDVFHAPYVANQGWYDITKTFNGKDDLLCGAATAGNMLHWWFDQNKEYIEAYLKKHPEKQKIMFGDQELLDVRKAINTKGSQKNSELFNYFRDKAFPNLSARRLGVMPDLVLDMFINGYYLNVTKTQTTDVNRTYQEKDKRGGIFDAVFTRGDQSKLLTSRHDFKEKGLKEISDLIKQELTEGKALGLSHTYANVRLNHVINLWGADFDSDGNLKAIYVTDSDSNASIGMKKYFVGVNSSGKVAISAKEIKEDNIGAQVLGLFTLSTGQDIWNQTN , give its measured Enzyme Activity Endpoint Assay: scIgG value.
0

For the protein PRT-513 (protein) MITSVWTKGVTPPAKFTQGEDVFHAPYVANQGWYDITKTFNGKDDLLCGAATAGNMLHWWFDQNKEEIEAYLKKHPEKQKIMFGDQELLDVRKVINTKDSQTNSALFNYFKDKAFPNLSARRLGVMPDLVLDMFINGYYLNVYKTQTTDVNRTYQTKDRRGGIFDAVFTRGDQSKLLTERHDLKNKTLKEISDLIKQELTEGKALGLSHTYANVRINHVINLWGADFDSNGNLEAIYVTDSDSNASIGMKKYFVGVNSAGKVAISAKEIKEDNIGAQVLGLFTLSTGQDIWNQTNLEHHHHHH , give its measured Enzyme Activity Endpoint Assay: scIgG value.
0
